# System: MDA-MB-231
# method: Induction of apoptosis in human MDA-MB-231 cells assessed as increase in cleaved PARP expression at IC50 concentration after 72 hrs by western blotting
# Assay type: functional, cell-based
Active and inactive are the calls of the source. No cut-off for these calls is given here.
value_kind: Activity

C[C@]12CC[C@H](O)C=C1CC[C@@H]1[C@@H]2CC[C@]2(C)/C(=C/c3ccccn3)CC[C@@H]12    Active
C[C@]12CCC=CC1=CC[C@@H]1[C@@H]2CC[C@]2(C)/C(=C/c3ccccn3)CC[C@@H]12    Active
C[C@]12CCC=CC1=CC[C@@H]1[C@@H]2CC[C@@]2(C)[C@H]1CC[C@@]2(O)Cc1ccccn1    Active

Source listed as ChEMBL document CHEMBL3632566.
